molecular target: Kv2.1 (Homo sapiens); construct: host or cells: HEK293 or CHO; experiment: cell-based; details: peptide at 0.2 μM; 100% = no change, <100% = inhibition
Sequence (Q14721 whole entry): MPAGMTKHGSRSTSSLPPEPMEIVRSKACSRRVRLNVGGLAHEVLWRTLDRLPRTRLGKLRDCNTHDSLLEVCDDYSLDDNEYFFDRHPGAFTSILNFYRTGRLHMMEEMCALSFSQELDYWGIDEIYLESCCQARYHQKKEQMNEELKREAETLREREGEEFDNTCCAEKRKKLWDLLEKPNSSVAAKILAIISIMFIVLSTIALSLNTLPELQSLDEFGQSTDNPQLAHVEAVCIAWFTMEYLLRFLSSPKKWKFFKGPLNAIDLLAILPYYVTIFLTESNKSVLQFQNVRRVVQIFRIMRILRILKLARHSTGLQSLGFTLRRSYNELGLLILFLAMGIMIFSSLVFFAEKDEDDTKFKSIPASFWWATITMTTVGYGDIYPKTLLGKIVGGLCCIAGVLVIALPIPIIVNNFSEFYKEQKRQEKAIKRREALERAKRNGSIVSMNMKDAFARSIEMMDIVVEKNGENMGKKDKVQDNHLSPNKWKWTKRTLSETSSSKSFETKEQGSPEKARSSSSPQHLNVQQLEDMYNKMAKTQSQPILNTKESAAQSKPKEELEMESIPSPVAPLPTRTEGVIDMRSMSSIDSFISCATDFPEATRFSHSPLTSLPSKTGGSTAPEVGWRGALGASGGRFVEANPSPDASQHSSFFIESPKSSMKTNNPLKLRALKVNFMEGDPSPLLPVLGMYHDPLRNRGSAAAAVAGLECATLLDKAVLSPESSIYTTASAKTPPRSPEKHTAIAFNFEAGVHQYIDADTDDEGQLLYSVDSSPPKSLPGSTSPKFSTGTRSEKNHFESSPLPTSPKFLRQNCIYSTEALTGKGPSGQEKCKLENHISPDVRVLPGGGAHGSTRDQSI
For each record, write down the corresponding Activity of Kv2.1 with peptide, expressed as a percentage of the reference compound.
Answers are plain numbers, in %.

// below: answered substances
>  <SUBSTANCE>
5 (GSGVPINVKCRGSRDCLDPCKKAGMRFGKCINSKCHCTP) [compound 5]

>  <UOM>
%

>  <READING>
110

$$$$
>  <SUBSTANCE>
11 (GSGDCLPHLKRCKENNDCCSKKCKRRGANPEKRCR) [compound 11]

>  <UOM>
%

>  <READING>
121

$$$$
>  <SUBSTANCE>
34 (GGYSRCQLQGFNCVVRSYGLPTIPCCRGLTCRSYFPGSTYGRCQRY) [compound 34]

>  <UOM>
%

>  <READING>
98

$$$$
>  <SUBSTANCE>
24 (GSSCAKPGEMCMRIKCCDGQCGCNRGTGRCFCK) [compound 24]

>  <UOM>
%

>  <READING>
91

$$$$

Attention now turns to another entry.
# input Please state recorded Activity of Kv2.1 with peptide, expressed as a percentage of the reference compound (tested on Kv2.1 (Homo sapiens)) of 23 (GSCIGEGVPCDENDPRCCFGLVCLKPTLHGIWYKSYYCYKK) [compound 23]
# output 93

----------
Consider the following substances; for each one, report its Activity of Nav1.5 with peptide (percentage of the reference compound).
target: Nav1.5 (Homo sapiens, UniProt Q14524); test: in vitro; settings: peptide at 20 μM; first of two Nav1.5 columns (probably TP1); 100% = no change
Sequence (Q14524 whole entry): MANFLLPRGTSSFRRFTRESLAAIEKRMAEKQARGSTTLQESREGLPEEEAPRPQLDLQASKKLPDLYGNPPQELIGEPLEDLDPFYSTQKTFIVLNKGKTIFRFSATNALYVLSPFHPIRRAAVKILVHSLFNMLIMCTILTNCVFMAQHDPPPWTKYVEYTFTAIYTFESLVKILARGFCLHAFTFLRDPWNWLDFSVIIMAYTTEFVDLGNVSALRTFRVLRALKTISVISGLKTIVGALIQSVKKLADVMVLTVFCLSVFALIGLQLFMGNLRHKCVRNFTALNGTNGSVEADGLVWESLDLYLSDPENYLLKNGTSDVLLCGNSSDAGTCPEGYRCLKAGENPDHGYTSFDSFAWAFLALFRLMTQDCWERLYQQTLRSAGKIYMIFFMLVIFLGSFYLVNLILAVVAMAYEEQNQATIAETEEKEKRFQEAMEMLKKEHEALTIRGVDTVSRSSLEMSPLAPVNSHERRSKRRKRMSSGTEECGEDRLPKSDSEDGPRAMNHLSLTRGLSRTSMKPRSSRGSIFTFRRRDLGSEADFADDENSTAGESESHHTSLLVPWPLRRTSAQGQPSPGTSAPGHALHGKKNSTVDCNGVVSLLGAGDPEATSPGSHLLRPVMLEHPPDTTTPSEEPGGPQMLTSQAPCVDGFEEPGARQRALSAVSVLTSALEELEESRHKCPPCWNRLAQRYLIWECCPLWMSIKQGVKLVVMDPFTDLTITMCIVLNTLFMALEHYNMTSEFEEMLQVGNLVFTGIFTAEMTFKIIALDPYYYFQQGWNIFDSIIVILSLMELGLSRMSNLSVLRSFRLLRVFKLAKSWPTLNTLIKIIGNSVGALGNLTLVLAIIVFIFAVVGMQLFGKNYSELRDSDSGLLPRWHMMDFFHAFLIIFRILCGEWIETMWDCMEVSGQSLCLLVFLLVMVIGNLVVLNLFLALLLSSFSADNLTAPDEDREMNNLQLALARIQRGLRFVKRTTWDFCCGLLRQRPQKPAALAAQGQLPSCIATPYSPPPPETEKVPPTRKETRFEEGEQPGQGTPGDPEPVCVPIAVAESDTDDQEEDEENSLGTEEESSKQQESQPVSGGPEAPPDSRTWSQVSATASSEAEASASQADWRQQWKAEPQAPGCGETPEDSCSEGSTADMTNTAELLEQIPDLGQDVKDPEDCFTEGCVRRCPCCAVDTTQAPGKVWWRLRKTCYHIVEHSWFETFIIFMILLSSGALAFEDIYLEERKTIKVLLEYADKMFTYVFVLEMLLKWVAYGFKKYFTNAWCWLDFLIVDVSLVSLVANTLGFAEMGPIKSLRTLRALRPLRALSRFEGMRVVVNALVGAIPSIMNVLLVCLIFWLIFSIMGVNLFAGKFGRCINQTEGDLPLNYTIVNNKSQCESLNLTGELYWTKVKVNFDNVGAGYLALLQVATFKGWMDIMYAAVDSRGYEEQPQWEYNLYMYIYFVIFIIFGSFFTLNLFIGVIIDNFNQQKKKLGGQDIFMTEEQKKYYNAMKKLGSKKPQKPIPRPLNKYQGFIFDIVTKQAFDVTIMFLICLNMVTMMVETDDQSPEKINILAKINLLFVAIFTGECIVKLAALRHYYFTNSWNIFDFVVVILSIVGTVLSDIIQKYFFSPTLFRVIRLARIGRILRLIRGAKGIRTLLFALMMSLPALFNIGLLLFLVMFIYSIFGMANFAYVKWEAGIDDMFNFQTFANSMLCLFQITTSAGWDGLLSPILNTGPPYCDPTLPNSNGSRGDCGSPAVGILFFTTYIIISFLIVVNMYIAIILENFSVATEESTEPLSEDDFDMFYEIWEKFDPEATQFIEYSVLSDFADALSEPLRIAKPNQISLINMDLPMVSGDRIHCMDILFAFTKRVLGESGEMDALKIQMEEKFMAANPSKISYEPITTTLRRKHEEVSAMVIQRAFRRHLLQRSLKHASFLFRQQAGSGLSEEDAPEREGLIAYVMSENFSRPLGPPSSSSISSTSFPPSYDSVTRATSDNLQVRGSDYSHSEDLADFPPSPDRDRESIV
Numbers only, in %.

Use these answered entries as a reference point.
>  <SUBSTANCE>
16 (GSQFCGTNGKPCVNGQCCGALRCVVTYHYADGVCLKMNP) [compound 16]

>  <UOM>
%

>  <READING>
93

$$$$
>  <SUBSTANCE>
13 (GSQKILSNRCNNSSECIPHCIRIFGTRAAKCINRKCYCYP) [compound 13]

>  <UOM>
%

>  <READING>
97

$$$$

In the following, a different substance is considered.
# input # get_value(readout='Activity of Nav1.5 with peptide (percentage of the reference compound)', item= 36 (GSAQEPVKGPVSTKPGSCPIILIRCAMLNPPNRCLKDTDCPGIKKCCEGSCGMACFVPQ) [compound 36] )
# output 107

----------
biological target: Nav1.3 sodium channel (human SCN3A gene) (Homo sapiens, UniProt Q9NY46); assay: cell-based; set-up: host or cells: CHO; details: read-out: IC50 Nav1.3 ion channel inhibition, TP2
READOUT NAME: pIC50
Numbers only, as −log10 of the molar value.

# input Lab request: please report pIC50 under test system Nav1.3 sodium channel (human SCN3A gene) (Homo sapiens, UniProt Q9NY46) for NC1=N[C@H](O)[C@H]2[C@H]3O[C@]4(O)O[C@@H]([C@@H](O)[C@@]2(N1)[C@@H]4O)[C@]3(O)CO [TTX, Tetrodotoxin, reference compound]
# output 7.55

----------
Could you please report measured Activity of TRPV1 with peptide, expressed as a percentage of the reference compound for the items listed next?
biological target: TRPV1 (Homo sapiens, UniProt Q8NER1); construct: host or cells: HEK293 or CHO; test: Ion channel panel (IonWorks Barracuda): TRPV1; assay type: cell-based; conditions: peptide at 0.2 μM; 100% = no change, <100% = inhibition
Sequence (Q8NER1 whole entry): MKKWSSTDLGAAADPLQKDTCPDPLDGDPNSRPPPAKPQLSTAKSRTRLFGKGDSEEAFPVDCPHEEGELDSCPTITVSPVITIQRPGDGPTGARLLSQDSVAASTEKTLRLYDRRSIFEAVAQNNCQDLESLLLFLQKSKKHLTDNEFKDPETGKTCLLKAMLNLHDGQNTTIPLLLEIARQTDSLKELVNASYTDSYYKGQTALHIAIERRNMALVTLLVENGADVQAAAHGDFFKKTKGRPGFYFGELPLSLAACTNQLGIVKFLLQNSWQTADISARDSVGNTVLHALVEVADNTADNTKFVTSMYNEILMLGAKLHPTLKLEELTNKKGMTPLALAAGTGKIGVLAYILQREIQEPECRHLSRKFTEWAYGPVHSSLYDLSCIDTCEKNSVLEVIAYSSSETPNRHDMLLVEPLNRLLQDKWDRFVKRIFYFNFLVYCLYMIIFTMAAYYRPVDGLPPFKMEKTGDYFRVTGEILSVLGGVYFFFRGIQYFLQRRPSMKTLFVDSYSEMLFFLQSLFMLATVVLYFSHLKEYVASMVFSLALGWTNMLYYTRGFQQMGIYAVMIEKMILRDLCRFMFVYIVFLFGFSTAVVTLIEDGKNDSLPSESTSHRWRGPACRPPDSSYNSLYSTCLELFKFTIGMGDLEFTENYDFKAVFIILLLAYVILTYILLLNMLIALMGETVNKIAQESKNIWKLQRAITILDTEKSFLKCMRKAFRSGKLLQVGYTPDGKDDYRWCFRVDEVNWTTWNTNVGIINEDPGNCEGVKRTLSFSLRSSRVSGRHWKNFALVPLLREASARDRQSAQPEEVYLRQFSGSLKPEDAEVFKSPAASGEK
Give bare numbers, in %.

Illustrative cases are given below, each with its answer.
>  <SUBSTANCE>
19 (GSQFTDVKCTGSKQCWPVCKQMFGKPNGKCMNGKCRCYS) [compound 19]

>  <UOM>
%

>  <READING>
94

$$$$
>  <SUBSTANCE>
4 (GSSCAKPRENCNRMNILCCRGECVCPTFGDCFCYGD) [compound 4]

>  <UOM>
%

>  <READING>
110

$$$$
>  <SUBSTANCE>
34 (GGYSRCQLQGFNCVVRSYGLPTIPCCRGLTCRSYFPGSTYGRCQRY) [compound 34]

>  <UOM>
%

>  <READING>
110

$$$$
>  <SUBSTANCE>
25 (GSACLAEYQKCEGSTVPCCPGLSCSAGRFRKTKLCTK) [compound 25]

>  <UOM>
%

>  <READING>
117

$$$$

# input Query: Activity of TRPV1 with peptide, expressed as a percentage of the reference compound; subject: 5 (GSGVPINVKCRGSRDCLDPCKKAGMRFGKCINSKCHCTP) [compound 5]
# output 101
